Biological target: Sphingosine kinase 2 (Homo sapiens)
Settings: at 1 µM
Description: GSK_PKIS: SPHK2 mean inhibition at 1 uM [Nanosyn]
Endpoint Label: inhibition (%)
Lab book: enter the figure in %, no units written.

// query # query: inhibition of entry NS(=O)(=O)c1ccc(NC=C2C(=O)Nc3ccc4ncsc4c32)cc1
// result 2.35

// query What value of inhibition has been recorded for this entry: Cc1nc(-c2ccccc2)n2nc(NCCCN3CCOCC3)ncc12
// result -0.14

// query Fill in: inhibition of O=S(=O)(CCOCc1ccc(-c2ccc3ncnc(Nc4ccc(OCc5cccc(F)c5)c(Cl)c4)c3c2)o1)c1ccccc1 is ___
// result 14.2

// query Would you mind telling me what inhibition value was observed for Cc1cc(O)cc(C)c1/C=C/c1cncc(C(=O)N(C)C)c1 ?
// result 0.05

// query Find the recorded inhibition belonging to Cc1ccc(C(=O)NC2CC2)cc1-c1ccc2[nH]ncc2c1 and report it.
// result 0.65

// query Quick one: inhibition for COc1cc(/C=N/Nc2ncnc3c2cnn3C(C)C)ccc1O ?
// result 1.89

// query Give the measured inhibition of CS(=O)(=O)Nc1cccc(-c2ccc3c(NC(=O)C4CC4)n[nH]c3c2)c1 .
// result 0.16

// query Looking for the measured inhibition of CCn1c(-c2nonc2N)nc2c(C#CC(C)(C)O)nc(OCCNC)cc21 , can you help?
// result 3.77

// query Entry under review: COc1cc2ncn(-c3cc(OCc4ccccc4S(C)(=O)=O)c(C#N)s3)c2cc1OC . Reported inhibition?
// result -2.2

// query Look up inhibition: NS(=O)(=O)c1ccc(Nc2cc(-c3cccc(O)c3)n[nH]2)cc1
// result -0.8

// query Data request, read-out inhibition, for CN(C)C(=O)O[C@H]1CN[C@H](C#Cc2cc3ncnc(Nc4ccc(OCc5cccc(F)c5)c(Cl)c4)c3s2)C1
// result 0.69

// query Quick one: inhibition for Nc1nccc(C#Cc2cncnc2Nc2ccc(OCc3cccc(F)c3)c(Cl)c2)n1 ?
// result -9.13

----------
Target: Serine/threonine-protein kinase Chk2 (Homo sapiens)
Details: at 0.1 µM
Description: GSK_PKIS: CHEK2 mean inhibition at 0.1 uM [Nanosyn]
Endpoint Label: inhibition (%)
API: value field is a number in %; no unit string.

Below, each entry is followed by its recorded inhibition result.
[
  {
    "Smiles": "COc1cccc(-n2ncc3c(N/N=C/c4ccc(C)cc4)ncnc32)c1",
    "inhibition [%]": -1.83
  },
  {
    "Smiles": "CS(=O)(=O)Nc1cccc(-c2ccc3c(NC(=O)C4CC4)n[nH]c3c2)c1",
    "inhibition [%]": 0.51
  },
  {
    "Smiles": "c1ccc(Nc2ncc(-c3ccccc3)o2)cc1",
    "inhibition [%]": 0.95
  },
  {
    "Smiles": "CS(=O)(=O)CCNCc1nc(-c2ccc3ncnc(Nc4ccc(OCc5cccc(C(F)(F)F)c5)cc4)c3c2)cs1",
    "inhibition [%]": 1.74
  },
  {
    "Smiles": "COc1ccc(-c2nn3ncccc3c2-c2ccnc(Nc3cccc(C(F)(F)F)c3)n2)cc1",
    "inhibition [%]": 2.01
  },
  {
    "Smiles": "C[C@@H](Oc1cc(-n2cnc3ccc(OC[C@@H](O)CO)cc32)sc1C(N)=O)c1ccccc1Cl",
    "inhibition [%]": -1.68
  },
  {
    "Smiles": "Cc1ccc(NC(=O)CC2CC2)cc1-c1ccc(C(=O)NCC2CC2)cc1",
    "inhibition [%]": 6.96
  },
  {
    "Smiles": "NS(=O)(=O)c1ccc(NC=C2C(=O)Nc3ccc4ncsc4c32)cc1",
    "inhibition [%]": 7.15
  }
]

// moving on: another record for inhibition
// query Consider the compound shown here: COc1cccc(-n2ncc3c(N/N=C/c4ccc(S(C)(=O)=O)cc4)ncnc32)c1 What is its recorded inhibition?
// result -0.14
